- Measured Target: Epidermal growth factor receptor (Homo sapiens) (UniProt P00533)
- Sequence (P00533 whole entry, looked up): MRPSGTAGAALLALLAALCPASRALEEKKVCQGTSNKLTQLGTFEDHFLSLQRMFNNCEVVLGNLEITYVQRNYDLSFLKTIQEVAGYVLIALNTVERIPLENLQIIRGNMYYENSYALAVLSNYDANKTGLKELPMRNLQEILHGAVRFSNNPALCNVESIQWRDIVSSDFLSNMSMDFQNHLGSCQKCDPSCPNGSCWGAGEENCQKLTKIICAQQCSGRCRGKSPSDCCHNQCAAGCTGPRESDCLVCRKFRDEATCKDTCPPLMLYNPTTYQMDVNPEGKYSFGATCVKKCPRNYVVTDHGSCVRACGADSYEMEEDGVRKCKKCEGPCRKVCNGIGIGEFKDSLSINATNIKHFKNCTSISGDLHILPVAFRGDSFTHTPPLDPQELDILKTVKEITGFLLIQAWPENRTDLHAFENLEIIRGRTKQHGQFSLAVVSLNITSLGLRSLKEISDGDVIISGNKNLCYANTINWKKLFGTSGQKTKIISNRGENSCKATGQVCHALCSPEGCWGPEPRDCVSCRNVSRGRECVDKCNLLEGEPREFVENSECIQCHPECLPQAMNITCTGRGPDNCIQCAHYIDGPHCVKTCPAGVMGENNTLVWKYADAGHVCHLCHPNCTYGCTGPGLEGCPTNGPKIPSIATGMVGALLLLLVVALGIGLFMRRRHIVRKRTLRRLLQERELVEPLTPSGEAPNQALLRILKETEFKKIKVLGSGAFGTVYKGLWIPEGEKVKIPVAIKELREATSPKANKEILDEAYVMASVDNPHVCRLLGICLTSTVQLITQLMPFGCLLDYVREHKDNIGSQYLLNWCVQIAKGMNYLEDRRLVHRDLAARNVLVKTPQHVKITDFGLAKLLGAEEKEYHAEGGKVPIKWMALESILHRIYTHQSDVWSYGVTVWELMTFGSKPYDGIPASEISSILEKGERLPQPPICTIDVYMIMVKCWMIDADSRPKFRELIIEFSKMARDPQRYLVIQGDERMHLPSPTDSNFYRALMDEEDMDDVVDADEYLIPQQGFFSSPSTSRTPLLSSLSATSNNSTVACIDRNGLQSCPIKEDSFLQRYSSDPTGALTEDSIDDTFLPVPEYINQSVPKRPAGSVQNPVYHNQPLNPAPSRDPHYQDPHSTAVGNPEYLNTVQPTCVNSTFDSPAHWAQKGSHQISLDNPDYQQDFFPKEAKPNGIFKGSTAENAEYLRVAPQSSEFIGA
- Protocol: EGFR binders on small-molecule microarrays, primary screen, biochemical, small-molecule microarray, 635 nm fluorescence (AID 1104);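 also: score merges 667 nm emission intensity with spot signal to noise over triplicate slides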
- Setup Conditions: EGFR binding, higher = more signal
Items are presented alongside their recorded composite z-score.
Reply with the value as a number alone.

Molecule: Cc1ccc(S[C@]2(C(=O)NC(C)C)CC(=O)N(C3Cc4ccccc4C3)[C@@H]2c2ccc(CO)cc2I)cc1
composite z-score: -0.922
--
Molecule: O=C1C[C@@](C(=O)NCC(F)(F)F)(c2ccc([N+](=O)[O-])cc2)[C@@H](c2ccc(CO)cc2)N1C1CCCCC1
composite z-score: 0.308

Entry "C=CCOC(=O)[C@@H]1[C@H]2C(=O)O[C@H](c3ccccc3)[C@H](c3ccccc3)N2[C@H](c2ccc(OCCOC(=O)[C@H]3C[C@H]4C(=O)N[C@@H](CC(C)C)C(=O)N4[C@H]3c3ccc(O)cc3)cc2)[C@@]12C(=O)Nc1ccc(I)cc12" , composite z-score reported as 1.08

In plain terms, "Cc1ccc(F)cc1S(=O)(=O)N[C@@H]1CCN(Cc2ccc(Oc3ccccc3)cc2)C1" has a documented composite z-score of -0.0463

Record summary for "C[C@]1(C(=O)O)c2ccccc2C(=O)N(Cc2ccccc2)[C@H]1c1ccc(CO)cc1" : reported composite z-score = -1.63

Memo: "C=CCOC(=O)[C@H]1[C@@H]2C(=O)O[C@@H](c3ccccc3)[C@@H](c3ccccc3)N2[C@@H](c2ccc(OCCOC(=O)[C@H]3C[C@H]4C(=O)N[C@@H](Cc5ccccc5)C(=O)N4[C@H]3c3ccc(O)cc3)cc2)[C@]12C(=O)Nc1ccc(I)cc12" , reported composite z-score: 0.625

// sample "COc1ccc(CCNC(=O)[C@@]2(Sc3ccc(C)cc3)CC(=O)N(Cc3cc(C(F)(F)F)cc(C(F)(F)F)c3)[C@@H]2c2ccc(CO)cc2I)cc1" , its composite z-score was -1.06

Form field composite z-score, entry "COCCCNC(=O)[C@]1(CCC(=O)OC(C)(C)C)N=C(c2ccc(OCCCO)cc2)O[C@@H]1c1ccccc1" : -0.301

For reference, reported composite z-score for C=CCC(OC(C)=O)[C@@H]1[C@@H](N(Cc2ccc(-c3ccccc3)cc2)C(=O)c2cccc3ccccc23)c2cc(OCCCO)ccc2N1C(=O)Cc1ccc2ccccc2c1 (stereo partly specified) stands at -0.062

So, "C=CCOC(=O)[C@@H]1[C@H]2C(=O)O[C@H](c3ccccc3)[C@H](c3ccccc3)N2[C@H](c2ccc(OCCOC(=O)[C@H]3C[C@H]4C(=O)N[C@@H](CCCC[N+](C)(C)C)C(=O)N4[C@H]3c3ccc(O)cc3)cc2)[C@@]12C(=O)Nc1ccc(I)cc12" ? Its composite z-score was 1.18

Entry "[N-]=[N+]=Nc1ccccc1[C@H]1OC(c2ccc(OCCCO)cc2)=N[C@@]1(CCS(=O)(=O)c1ccccc1)C(=O)N1CCCCC1" , composite z-score reported as 0.0374

* * *

- Measured Target: Calmodulin-1 (Homo sapiens) (UniProt P0DP23)
- Protocol: calcium-bound CALM1 binders on microarrays, profiling panel, artefact control for SMM control-protein annotation, biochemical, small-molecule microarray, Cy5-labelled CALM1, plus calcium (AID 1112);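 also: score merges spot fluorescence with signal to noise from triplicate slides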
- Setup Conditions: Cy5-CALM1 binding fluorescence, higher = more signal
Reported composite z-score is given for each of the following compounds.
Answer with a number only.

Examples with answers:
Compound: CC1CC/C=C\[C@H]2OC34C=CCN(C(C)C)C(=O)[C@H]3N(CCCCCO)C(=O)[C@@H]4C2C(=O)O1 (stereo not given in full)
composite z-score: 0.446

Compound: COc1cc2c(cc1OC)CN(C(=O)[C@H]1[C@@H]3C(=O)O[C@@H](c4ccccc4)[C@@H](c4ccccc4)N3[C@@H](c3ccc(OCCO)cc3)[C@]13C(=O)Nc1ccc(C#CC4(O)CCCCCC4)cc13)CC2
composite z-score: 0.765

Compound: O=C1O[C@@H](c2ccccc2)[C@@H](c2ccccc2)N2[C@@H](c3ccccc3OCCO)[C@]3(C(=O)Nc4ccc(C#CCCO)cc43)[C@@H](C(=O)N3CCN(c4ncccn4)CC3)[C@H]12
composite z-score: 0.27

Compound: CC(C)N1CC=CC23O[C@@H]4C=CCOC(=O)[C@@H]4[C@H]2C(=O)N(C(C)CO)[C@@H]3C1=O (stereo not given in full)
composite z-score: -0.123

Compound: O=C1NC(=O)C2C1C=CC(C(O)c1cc(C(F)(F)F)cc(C(F)(F)F)c1)N2Nc1ccc(Cl)cc1Cl (stereo not given)
composite z-score: 1.29

Turning now to a further record.
get_value(item= "C=CC[C@@]1(C(=O)O)N=C(c2ccc(OCCCO)cc2)O[C@@H]1c1ccccc1" , readout=composite z-score) returns -1.41

* * *

Catalogue of composite z-score values
- Protocol: small-molecule microarray binders of probe aLefty2, primary screen, biochemical, biotinylated probe, 635/667 nm fluorescence (AID 1094);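 also: score merges spot fluorescence near 667 nm with spot signal-to-noise ratio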
- Setup Conditions: higher = more signal

Some solved entries appear below for comparison.
Compound: CO[C@H]1O[C@H](CO)[C@@H](OC(=O)c2ccc(Br)cc2)[C@@H]2OC(=O)[C@@H](Cc3ccc4ccccc4c3)C/C=C/C[C@H](Cc3ccc4ccccc4c3)C(=O)O[C@@H]12
composite z-score: -0.0375
//
Compound: C=CCN1C(=O)[C@@]2(O[C@@H](CCn3cc([C@H](O)c4ccccc4)nn3)[C@H]([Si](C)(C)c3ccc(OC)cc3)[C@H]2C)c2ccccc21
composite z-score: -0.0507
//
Compound: C=C(COC)/C(=C/C[C@@H](OC(=O)c1ccncc1)c1ccc(CO)o1)c1cnc2ccccc2c1
composite z-score: -0.112
//
Compound: COC(=O)C1(Cc2ccccc2)C=C2C(=C(C(C)C)C(=O)C2C)CN1 (stereo not given)
composite z-score: 0.469
//
Compound: O=C1c2ccccc2[C@@]2(Cc3ccccc3N(C3CC3)C2=O)[C@H](c2ccc(CO)cc2)N1C1CCCCC1
composite z-score: -0.17
//
Compound: CCOC(=O)C1=CC[C@@H](c2ccc([N+](=O)[O-])cc2)N(S(=O)(=O)c2ccc(C)cc2)[C@H]1c1ccccc1
composite z-score: 0.0511
//
Compound: COc1cc(CO)cc(I)c1O[C@H]1C=C(C(=O)NCCO)C[C@@H](N(CC2CCCCC2)C(=O)c2ccc(C(F)(F)F)cc2)[C@@H]1O
composite z-score: -0.166
//
Compound: COCCOC(=O)N1C(=O)[C@@]2(c3cc(C#CC4(O)CCCCCC4)ccc31)[C@H](C(=O)N1CCCCCCC1)[C@H]1C(=O)O[C@H](c3ccccc3)[C@H](c3ccccc3)N1[C@@H]2c1ccc(OCCO)cc1
composite z-score: 1.77

What the record says about "CN(C)C(=O)[C@]1(CCC(=O)OC(C)(C)C)N=C(c2ccc(OCCCO)cc2)O[C@@H]1c1ccccc1" : composite z-score is 0.0601

* * *

- Protocol: fission yeast growth modulation, primary screen, strain 972, OD600, 24 h, no modulator (AID 1090);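 also: basal condition with compound alone and no growth modifier present; test concentration not given here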
- Setup Conditions: S. pombe 972 growth, called active from +8 up or from −8 down
Active and inactive are the calls of the source.
Pick one: active, inactive

Compound: [N-]=[N+]=NCc1ccccc1[C@H]1OC(c2ccc(OCCCO)cc2)=N[C@@]1(CCS(=O)(=O)c1ccccc1)C(N)=O
Class Assignment: inactive
--
Compound: COC(=O)[C@@]1(Cc2ccccc2)[C@H]2c3cc(C(=O)N4CCCC4)n(Cc4cc(F)cc5c4OCOC5)c3C[C@H]2CN1C(=O)c1ccccc1
Class Assignment: inactive
--
Compound: O=C1O[C@@H](c2ccccc2)[C@@H](c2ccccc2)N2[C@@H](c3ccc(O)cc3)[C@]3(C(=O)Nc4ccc(C#CC5=CCCCC5)cc43)[C@@H](C(=O)N3CCN(c4ncccn4)CC3)[C@H]12
Class Assignment: inactive
--
Compound: O=C1c2ccccc2[C@@]2(Cc3ccccc3N(C3CC3)C2=O)[C@H](c2ccc(CO)cc2)N1C1CCCCC1
Class Assignment: inactive
--
Compound: CC(C)C[C@@H]1NC(=O)[C@H]2C[C@@H](C(=O)NCCCCCC[N+](C)(C)C)[C@@H](c3cccc(OCCO)c3)N2C1=O
Class Assignment: inactive

Called result for CC(C)C(O)C1C=CC2C(=O)N(C)C(=O)C2N1Nc1ccccc1 (centres undefined) inactive

How did this test come out for "CCCC[C@@H]1C[C@H]1[C@@H](NC(=O)c1cccnc1)c1ccc(-c2ccccc2)cc1" ? active

What call does the record list for "CN(C)CCCCNC(=O)[C@H]1C[C@H]2C(=O)N3CCC[C@H]3C(=O)N2[C@H]1c1ccc(O)cc1" ? inactive

# outcome recorded in this test, key = COc1ccc(C(O)C2C=CC3C(=O)N(c4ccccc4)C(=O)C3N2Nc2ccc(C#N)cc2)c2ccccc12 (centres undefined) inactive

// param item: C[C@H]1C2=C3C(CC[C@H]4C(OCc5ccc(F)cc5C(F)(F)F)OC[C@](C)([C@@H]34)N(C(=O)OC(C)(C)C)C2)C(CO)C1CO (some centres undefined) ; yields the recorded call inactive

Test call for this compound, please: "CCOC(=O)C[C@H]1[C@H](OC(=O)Cc2ccc3c(c2)OCO3)[C@@H](NC(=O)Cc2ccc(OC)cc2)c2cc(OCCCO)ccc2N1C(=O)c1ccccc1" inactive

Give the logged outcome of this assay for the following compound: CCN(CC)c1ccc(N2CC=CC34O[C@@H]5/C=C\CCC(C)OC(=O)C5[C@H]3C(=O)N(CCO)[C@@H]4C2=O)cc1 (some centres undefined) inactive

What call does the record list for "C=CCN1C(=O)[C@@]2(O[C@@H](CCn3cc([C@H](O)c4ccccc4)nn3)[C@H]([Si](C)(C)c3ccc(OC)cc3)[C@H]2C)c2ccccc21" ? inactive

Tell me the recorded outcome of this test for "Cc1ccc(S[C@]2(C(=O)NCC(F)(F)F)CC(=O)N(Cc3ccccc3)[C@@H]2c2ccc(CO)cc2)cc1" . inactive

All values here come from PubChem BioAssay.
